Attribution: patent US4496578A

tested on: angiotensin I-converting enzyme; experiment: Percent inhibition of pressor response to angiotensin I in unanesthetized rats after oral administration (ACE inhibition in vivo); design: species or system Male Wistar strain rats; details: 95 min after oral dose; mg/kg: 2 1.8, 2A 1.3, 2B 1.8, 22 1.5, 22A 1.0, 22B 1.4, 32 1.7, 32C 1.3, 64 1.9
RECORDED METRIC: Inhibition (%) of pressor response to angiotensin I
The response must be a number in % with no trailing unit.

Examples with their reported Inhibition (%) of pressor response to angiotensin I follow.
* C[C@H](CSC(=O)c1ccccc1)C(=O)N1C(C(=O)O)CCC1c1ccccc1O (stereo partly shown) [Compound 2B] | 21.1
* O=C(O)[C@@H]1CSC(c2ccccc2O)N1C(=O)CCS (stereo partly shown) [Compound 32C] | 30.0
* C[C@H](CS)C(=O)N1C(C(=O)O)CCC1c1ccccc1O (stereo partly shown) [Compound 2A] | 24.8

Please give the measured Inhibition (%) of pressor response to angiotensin I for this compound: C[C@H](CSC(=O)c1ccccc1)C(=O)N1CSC[C@H]1C(=O)O [Compound 22B]
21.2

---

Attribute: Inhibition (%) of pressor response to angiotensin I
system: angiotensin I-converting enzyme; test: Percent inhibition of pressor response to angiotensin I in unanesthetized rats after oral administration (ACE inhibition in vivo); parameters: species or system Male Wistar strain rats; conditions: 95 min after oral dose; mg/kg: 2 1.8, 2A 1.3, 2B 1.8, 22 1.5, 22A 1.0, 22B 1.4, 32 1.7, 32C 1.3, 64 1.9
The response must be a number in % with no trailing unit.

Examples with their reported Inhibition (%) of pressor response to angiotensin I follow.
• Cc1ccc(C(=O)SC[C@@H](C)C(=O)N2C(C(=O)O)CCC2c2ccccc2O)cc1 (some centres unmarked) = 39.5
• C[C@H](CS)C(=O)N1CSC[C@H]1C(=O)O [Compound 22A] = 19.8

Please give the measured Inhibition (%) of pressor response to angiotensin I for this compound: C[C@H](CSC(=O)c1ccccc1)C(=O)N1CSC[C@H]1C(=O)OCOC(=O)C(C)(C)C
30.8

Similarly, CC(=O)Oc1ccccc1C1SC[C@@H](C(=O)O)N1C(=O)CCSC(C)=O (some centres unmarked) ?
43.4

Similarly, Cc1ccc(C(=O)SC[C@@H](C)C(=O)N2CSC[C@H]2C(=O)O)cc1 ?
46.5

---

tested on: angiotensin I-converting enzyme; assay: Percent inhibition of pressor response to angiotensin I in unanesthetized rats after oral administration (ACE inhibition in vivo); design: species or system Male Wistar strain rats; conditions: 45 min after oral dose; mg/kg: 2 1.8, 2A 1.3, 2B 1.8, 22 1.5, 22A 1.0, 22B 1.4, 32 1.7, 32C 1.3, 64 1.9
Label scheme for Inhibition (%) of pressor response to angiotensin I: lower than 50% is 0, 50% and above is 1.

- C[C@H](CSC(=O)c1ccccc1)C(=O)N1CSC[C@H]1C(=O)O [Compound 22B]: 0
- C[C@H](CSC(=O)c1ccccc1)C(=O)N1C(C(=O)O)CCC1c1ccccc1O (stereo partly drawn): 0
- Cc1ccc(C(=O)SC[C@@H](C)C(=O)N2C(C(=O)O)CCC2c2ccccc2O)cc1 (stereo partly drawn): 1
- C[C@H](CS)C(=O)N1CSC[C@H]1C(=O)O [Compound 22A]: 0
- O=C(O)[C@@H]1CSC(c2ccccc2O)N1C(=O)CCS (stereo partly drawn) [Compound 32C]: 1

Form field: Inhibition (%) of pressor response to angiotensin I at least 50%? Entry: C[C@H](CSC(=O)c1ccccc1)C(=O)N1CSC[C@H]1C(=O)OCOC(=O)C(C)(C)C
1

Similarly, Cc1ccc(C(=O)SC[C@@H](C)C(=O)N2CSC[C@H]2C(=O)O)cc1 ?
1

Similarly, CC(=O)Oc1ccccc1C1SC[C@@H](C(=O)O)N1C(=O)CCSC(C)=O (stereo partly drawn) ?
1

Similarly, C[C@H](CS)C(=O)N1C(C(=O)O)CCC1c1ccccc1O (stereo partly drawn) ?
0
